Target: mouse Tas2r105 (Mus musculus, UniProt Q9JKT4)
Construct: expressed in transfected cells; host or cells: HEK293T-Gα16gust44
Sequence (Q9JKT4 whole entry): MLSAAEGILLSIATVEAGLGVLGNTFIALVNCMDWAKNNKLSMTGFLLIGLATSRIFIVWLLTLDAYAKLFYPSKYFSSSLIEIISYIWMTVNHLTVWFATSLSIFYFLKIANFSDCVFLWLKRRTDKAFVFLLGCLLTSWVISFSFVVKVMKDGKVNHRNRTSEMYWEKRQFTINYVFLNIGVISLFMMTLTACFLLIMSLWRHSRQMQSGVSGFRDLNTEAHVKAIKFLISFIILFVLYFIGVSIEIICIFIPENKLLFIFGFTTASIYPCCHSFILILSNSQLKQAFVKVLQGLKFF
Test: Calcium imaging assay (FLIPR), HEK293T-Gα16gust44 cells transfected with mouse Tas2r105
Assay type: cell-based
Settings: Time 78.781 s
This listing pairs compounds with measured RLU.

COMPOUND	TARGET OF ASSAY	RLU (RLU)
C[C@H](CCC(=O)NCC(=O)O)[C@H]1CC[C@H]2[C@@H]3[C@H](O)C[C@@H]4C[C@H](O)CC[C@]4(C)[C@H]3C[C@H](O)[C@]12C [Glycocholic Acid, glycocholic acid]	mouse Tas2r105 (Mus musculus, UniProt Q9JKT4)	478.685
C[C@H](CCC(=O)O)[C@H]1CC[C@H]2[C@@H]3[C@H](O)C[C@@H]4C[C@H](O)CC[C@]4(C)[C@H]3C[C@H](O)[C@]12C [Cholic Acid, cholic acid]	mouse Tas2r105 (Mus musculus, UniProt Q9JKT4)	480.774
C[C@H](CCC(=O)O)[C@H]1CC[C@H]2[C@@H]3CC[C@@H]4C[C@H](O)CC[C@]4(C)[C@H]3CC[C@]12C [Lithocholic Acid, lithocholic acid]	mouse Tas2r105 (Mus musculus, UniProt Q9JKT4)	142.279
C[C@H](CCC(=O)O)[C@H]1CC[C@H]2[C@@H]3CC[C@@H]4C[C@H](O)CC[C@]4(C)[C@H]3C[C@H](O)[C@]12C [Deoxycholic Acid, deoxycholic acid]	mouse Tas2r105 (Mus musculus, UniProt Q9JKT4)	45.8125

====

This listing pairs compounds with measured RLU.
Biological target: mouse Tas2r108 (Mus musculus, UniProt Q9JKT3)
Construct: expressed in transfected cells; host or cells: HEK293T-Gα16gust44
Sequence (Q9JKT3 whole entry): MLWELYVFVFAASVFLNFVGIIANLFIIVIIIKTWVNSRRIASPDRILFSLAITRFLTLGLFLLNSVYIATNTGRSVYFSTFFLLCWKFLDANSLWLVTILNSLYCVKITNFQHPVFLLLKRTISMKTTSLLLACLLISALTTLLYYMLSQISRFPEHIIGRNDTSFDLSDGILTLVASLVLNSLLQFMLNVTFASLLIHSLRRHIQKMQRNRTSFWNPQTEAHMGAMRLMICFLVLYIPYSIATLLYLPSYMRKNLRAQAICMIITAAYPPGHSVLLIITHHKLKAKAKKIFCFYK
Experiment: Calcium imaging assay (FLIPR), HEK293T-Gα16gust44 cells transfected with mouse Tas2r108
Format: cell-based
Conditions: Time 209.562 s

COMPOUND	TARGET OF ASSAY	RLU, RLU
C[C@H](CCC(=O)NCCS(=O)(=O)O)[C@H]1CC[C@H]2[C@@H]3[C@H](O)C[C@@H]4C[C@H](O)CC[C@]4(C)[C@H]3C[C@H](O)[C@]12C [Taurocholic Acid, taurocholic acid]	mouse Tas2r108 (Mus musculus, UniProt Q9JKT3)	251.411
C[C@H](CCC(=O)O)[C@H]1CC[C@H]2[C@@H]3[C@H](O)C[C@@H]4C[C@H](O)CC[C@]4(C)[C@H]3C[C@H](O)[C@]12C [Cholic Acid, cholic acid]	mouse Tas2r108 (Mus musculus, UniProt Q9JKT3)	161.279
C[C@H](CCC(=O)NCC(=O)O)[C@H]1CC[C@H]2[C@@H]3[C@H](O)C[C@@H]4C[C@H](O)CC[C@]4(C)[C@H]3C[C@H](O)[C@]12C [Glycocholic Acid, glycocholic acid]	mouse Tas2r108 (Mus musculus, UniProt Q9JKT3)	197.772
C[C@H](CCC(=O)O)[C@H]1CC[C@H]2[C@@H]3CC[C@@H]4C[C@H](O)CC[C@]4(C)[C@H]3C[C@H](O)[C@]12C [Deoxycholic Acid, deoxycholic acid]	mouse Tas2r108 (Mus musculus, UniProt Q9JKT3)	521.511

====

Molecular target: human TAS2R4 (Homo sapiens, UniProt Q9NYW5)
Construct: expressed in transfected cells; host or cells: HEK293T-Gα16gust44
Sequence (Q9NYW5 whole entry): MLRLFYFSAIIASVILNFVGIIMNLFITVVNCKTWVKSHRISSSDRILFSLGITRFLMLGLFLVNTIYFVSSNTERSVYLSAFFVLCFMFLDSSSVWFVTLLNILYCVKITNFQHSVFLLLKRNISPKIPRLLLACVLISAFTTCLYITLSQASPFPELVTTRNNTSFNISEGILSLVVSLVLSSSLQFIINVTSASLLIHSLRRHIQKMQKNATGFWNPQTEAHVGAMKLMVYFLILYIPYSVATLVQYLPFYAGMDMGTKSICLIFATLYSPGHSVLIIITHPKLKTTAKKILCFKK
Assay: Calcium imaging assay (FLIPR), HEK293T-Gα16gust44 cells transfected with human TAS2R4; further: test concentration or dose not given here
Assay type: cell-based
Conditions: Time (s) 317.547
READOUT NAME: RLU, fluorescence trace (RLU)

SUBSTANCE SMILES	READING UNIT	EXPERIMENTAL RESULT
C[C@H](CCC(=O)O)[C@H]1CC[C@H]2[C@@H]3[C@@H](O)C[C@@H]4C[C@H](O)CC[C@]4(C)[C@H]3CC[C@]12C	RLU	111.452
C[C@H](CCC(=O)NCC(=O)O)[C@H]1CC[C@H]2[C@@H]3[C@H](O)C[C@@H]4C[C@H](O)CC[C@]4(C)[C@H]3C[C@H](O)[C@]12C	RLU	94.0562
C[C@H](CCC(=O)O)[C@H]1CC[C@H]2[C@@H]3CC[C@@H]4C[C@H](O)CC[C@]4(C)[C@H]3C[C@H](O)[C@]12C	RLU	351.706
C[C@H](CCC(=O)NCCS(=O)(=O)O)[C@H]1CC[C@H]2[C@@H]3CC[C@@H]4C[C@H](O)CC[C@]4(C)[C@H]3CC[C@]12C	RLU	88.8315
C[C@H](CCC(=O)NCCS(=O)(=O)O)[C@H]1CC[C@H]2[C@@H]3[C@H](O)C[C@@H]4C[C@H](O)CC[C@]4(C)[C@H]3C[C@H](O)[C@]12C	RLU	199.388
C[C@H](CCC(=O)O)[C@H]1CC[C@H]2[C@@H]3[C@H](O)C[C@@H]4C[C@H](O)CC[C@]4(C)[C@H]3C[C@H](O)[C@]12C	RLU	268.105
